Just for reference, patent US9908890B2 is where these values come from.

# SYSTEM_NAME: GST-hCAR-LBD (Homo sapiens)
# Construct: purchased Life Technologies (Carlsbad, Calif.) or Invitrogen (Carlsbad, Calif.)
# Sequence (Q14994 109-352 limits assumed): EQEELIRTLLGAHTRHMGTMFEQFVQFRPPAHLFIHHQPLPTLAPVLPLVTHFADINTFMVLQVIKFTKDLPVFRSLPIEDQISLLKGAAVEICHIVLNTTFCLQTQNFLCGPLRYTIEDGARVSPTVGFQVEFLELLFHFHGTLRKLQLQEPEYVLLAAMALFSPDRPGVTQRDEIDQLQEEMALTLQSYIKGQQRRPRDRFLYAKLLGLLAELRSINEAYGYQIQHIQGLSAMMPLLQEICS
# RUN_DESCRIPTION: CoAct binding inverse agonist assay (LanthaScreen TR-FRET, fluorescent PGC-1α coactivator recruitment/repression)
# Format: biochemical
# MEASUREMENT_CONTEXT: 70 μM compound; 42 μM clotrimazole = 100%, DMSO = 0%; read-out: % Inhibition (70 μM)
# Description: The effect of putative CAR ligands on the recruitment or repression of PGC-1α binding to hCAR was evaluated by using a LanthaScreen TR-FRET assay according to the manufacturer's instructions. […] The final DMSO concentration was 0.7% in all assay wells. […] The % Inhibition values were then plotted for individual chemicals. […]
REPORTED_METRIC: inhibition at 70 µM (%)
Field: numeric (%). Do not append units.

Here is how some compounds turned out for inhibition at 70 µM.
Input line: Quick one: inhibition at 70 µM of `CCOC(=O)Nc1ccc2c(c1)N(C(=O)CNC(C)(C)CC)c1ccccc1CC2` ?
Output line: 116

Input line: Which value of inhibition at 70 µM has been reported for `CCCN(CCC)CC(=O)N1c2ccccc2CCc2ccc(NC(=O)OCC)cc21` in the records?
Output line: 113

Input line: Find the recorded inhibition at 70 µM belonging to `CCOC(=O)Nc1ccc2c(c1)N(C(=O)COC(C)(C)C)c1ccccc1CC2` and report it.
Output line: 120

Continuing:
Input line: Quick one: inhibition at 70 µM for `CCNS(=O)(=O)Nc1ccc2c(c1)N(C(=O)CN(CC)CC)c1ccccc1CC2` ?
Output line: 92

Input line: Give its inhibition at 70 µM value. Item: `CCOC(=O)Nc1ccc2c(c1)N(C(=O)CN1[C@H]3CC[C@@H]1CC3)c1ccccc1CC2`
Output line: 118

Input line: // inhibition at 70 µM lookup, key: `CCN(CC)CC(=O)N1c2ccccc2CCc2ccc(NC(=O)N(CC)CC)cc21`
Output line: 93.8

Input line: Give the measured inhibition at 70 µM of `CCOC(=O)Nc1ccc2c(c1)N(C(=O)CN(CC)CC)c1ccccc1CC2` .
Output line: 116

Input line: // returns reported inhibition at 70 µM for input `CCOC(=O)Nc1ccc2c(c1)N(C(=O)CN1CCCC1)c1ccccc1CC2`
Output line: 115

Input line: Requested field: inhibition at 70 µM. Item: `CCN(CC)CC(=O)N1c2ccccc2CCc2ccc(NC(=O)C(C)(C)C)cc21`
Output line: 113
